molecular target: β-secretase (BACE) (Homo sapiens, UniProt P56817); construct: purchased Panvera; assay: BACE FS1 % Inhibition Assay; format: biochemical; conditions: 3 μM test compound
Sequence (P56817 46-501): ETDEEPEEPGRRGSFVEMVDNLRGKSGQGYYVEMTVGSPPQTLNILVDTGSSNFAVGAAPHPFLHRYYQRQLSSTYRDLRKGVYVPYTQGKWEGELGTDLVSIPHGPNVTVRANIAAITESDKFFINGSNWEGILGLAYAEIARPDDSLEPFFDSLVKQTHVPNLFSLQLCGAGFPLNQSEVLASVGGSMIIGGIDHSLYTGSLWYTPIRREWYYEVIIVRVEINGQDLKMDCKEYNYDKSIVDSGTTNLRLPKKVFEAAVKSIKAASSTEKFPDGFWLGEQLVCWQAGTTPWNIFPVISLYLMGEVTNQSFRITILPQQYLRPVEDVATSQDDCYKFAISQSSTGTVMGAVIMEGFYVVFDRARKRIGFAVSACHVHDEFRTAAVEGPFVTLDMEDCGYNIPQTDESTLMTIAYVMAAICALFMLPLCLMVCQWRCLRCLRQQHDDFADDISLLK
Readout type: % Inhibition (FS) (%)

• CN(C(=O)CCC(C1CCOCC1)N1Cc2cc(Oc3ccccc3)ccc2N=C1N)C1CCCCC1 (centres unmarked) [Compound 619] = 125
• CN(C(=O)c1cccc(CN2Cc3cc(Oc4ccccc4-c4nc5ccccc5s4)ccc3N=C2N)c1)C1CCCCC1 [Compound 470] = 31
• CC(C)(C)OC(=O)NCC(C1CCCCC1)N1Cc2cc(Oc3ccccc3)ccc2N=C1N (centres unmarked) [Compound 257] = 111
• CCCC(CCC(=O)NC1CCCCC1)N1Cc2cc(Oc3ccccc3)ccc2N=C1N (centres unmarked) [Compound 129] = 113
• COc1cccc(C(=O)NCCN2Cc3cc(Oc4ccccc4)ccc3N=C2N)c1 [Compound 217] = 56
• NC1=Nc2ccc(Oc3ccccc3)cc2CN1C(CC(=O)NC1C2CC3CC(C2)CC1C3)C1CCCCC1 (centres unmarked) [Compound 314] = 85
• CCCC(CCC(=O)NC1CCCCCC1)N1Cc2cc(Oc3ccccc3)ccc2N=C1N (centres unmarked) [Compound 128] = 97
